The values you see were collected from the supplement of paper PMC11061612.

tested on: SW837 (Colorectal Carcinoma); test: combination Emax (second highest fraction inhibited in the dose matrix, 72 h); higher = more inhibition; extreme values may be limits of the assay
combination Emax values for the compounds below.
Form field (numeric): enter value without unit.

Please review the entries below; each comes with its answer.
compound: CS(=O)(=O)CCNCc1ccc(-c2ccc3ncnc(Nc4ccc(OCc5cccc(F)c5)c(Cl)c4)c3c2)o1 [Lapatinib] + C[C@@H](Oc1cc(-c2cnn(C3CCNCC3)c2)cnc1N)c1c(Cl)ccc(F)c1Cl [Crizotinib] (first compound max 10 µM, 7x7, partner max 10 µM)
combination Emax: 0.772
//
compound: COc1cccc(OCCCN)c1-c1cc(Nc2cnc(C#N)cn2)n[nH]1 [Prexasertib] + C=CCn1c(=O)c2cnc(Nc3ccc(N4CCN(C)CC4)cc3)nc2n1-c1cccc(C(C)(C)O)n1 [AZD1775] (first compound max 1 µM, partner max 1 µM)
combination Emax: 0.79
//
compound: N#Cc1cnc(Nc2cc(NC[C@H]3CNCCO3)c(C(F)(F)F)cn2)cn1 [SRA737] + CCc1c2c(nc3ccc(O)cc13)-c1cc3c(c(=O)n1C2)COC(=O)[C@]3(O)CC [SN-38] (first compound max 10 µM, 7x7, partner max 0.3 µM)
combination Emax: 0.805
//
compound: C[C@@H](Nc1cc(F)cc(F)c1)c1cc(C(=O)N(C)C)cc2c(=O)cc(N3CCOCC3)oc12 [AZD8186] + C1CN(CCC1(C(=O)N[C@@H](CCO)C2=CC=C(C=C2)Cl)N)C3=NC=NC4=C3C=CN4 [AZD5363] (first compound max 10 µM, 7x7, partner max 10 µM)
combination Emax: 0.237
//
compound: Cc1c2c(nn1C)CSCc1cc(n(C)n1)CSc1cc(c3ccccc3c1)OCCCc1c(C(=O)O)n(C)c3c-2c(Cl)ccc13 [AZD5991] + CS(=O)(=O)CCNCc1ccc(-c2ccc3ncnc(Nc4ccc(OCc5cccc(F)c5)c(Cl)c4)c3c2)o1 [Lapatinib] (first compound max 1 µM, 7x7, partner max 10 µM)
combination Emax: 0.303
//
compound: Cc1cc2ncnn2cc1Nc1ncc2c(n1)n(C1CCOCC1)c(=O)n2C [AZD7648] + CCN(CCO)CCCOc1ccc2c(Nc3cc(CC(=O)Nc4cccc(F)c4)[nH]n3)ncnc2c1 [AZD2811] (first compound max 10 µM, 7x7, partner max 1 µM)
combination Emax: 0.192

Note: attention shifts to another entry.
Ask: Entry C[C@@H](c1ccc2nccn2c1)n1nnc2ncc(-c3cnn(C)c3)nc21 [Savolitinib] + Cc1c2c(nn1C)CSCc1cc(n(C)n1)CSc1cc(c3ccccc3c1)OCCCc1c(C(=O)O)n(C)c3c-2c(Cl)ccc13 [AZD5991] (first compound max 1 µM, 7x7, partner max 1 µM) has what combination Emax?
Reply: 0.124

* * *

test system: PANC-08-13 (Pancreatic Carcinoma); test: combination Emax (second highest fraction inhibited in the dose matrix, 72 h); higher = more inhibition; extreme values may be limits of the assay
The entries below are paired with their reported combination Emax.
# answer = number (no unit)

compound: CC(=O)c1c(C)c2cnc(Nc3ccc(N4CCNCC4)cn3)nc2n(C2CCCC2)c1=O [Palbociclib] + Cc1c2c(nn1C)CSCc1cc(n(C)n1)CSc1cc(c3ccccc3c1)OCCCc1c(C(=O)O)n(C)c3c-2c(Cl)ccc13 [AZD5991] (first compound max 10 µM, 7x7, partner max 1 µM)
combination Emax: 0.221

Ask: // query combination Emax value for entry CCc1c2c(nc3ccc(O)cc13)-c1cc3c(c(=O)n1C2)COC(=O)[C@]3(O)CC [SN-38] + CN(C)CCCOc1ccc(-c2ccc3ncc4c(c3c2)n(C2CCOCC2)c(=O)n4C)cn1 [AZD0156] (first compound max 0.3 µM, 7x7, partner max 1 µM)
Reply: 0.131

Ask: Record request: combination Emax value, item CC1(C)CCC(CN2CCN(c3ccc(C(=O)NS(=O)(=O)c4ccc(NCC5CCOCC5)c([N+](=O)[O-])c4)c(Oc4cnc5[nH]ccc5c4)c3)CC2)=C(c2ccc(Cl)cc2)C1 [Venetoclax] + C[C@@H](Nc1cc(F)cc(F)c1)c1cc(C(=O)N(C)C)cc2c(=O)cc(N3CCOCC3)oc12 [AZD8186] (first compound max 1 µM, 7x7, partner max 3 µM)
Reply: 0.184

Ask: Could you tell me which combination Emax is on file for CN(CCO)CC[C@H](CSc1ccccc1)Nc1ccc(S(=O)(=O)NC(=O)c2ccc(N3CCC([C@@H](O)c4ccccc4-c4ccc(Cl)cc4)CC3)cc2)cc1S(=O)(=O)C(F)(F)F [AZD4320] + Cc1cc2ncnn2cc1Nc1ncc2c(n1)n(C1CCOCC1)c(=O)n2C [AZD7648] (first compound max 1 µM, 7x7, partner max 10 µM) ?
Reply: 0.391

Ask: Which combination Emax is reported for this compound? Cc1c2c(nn1C)CSCc1cc(n(C)n1)CSc1cc(c3ccccc3c1)OCCCc1c(C(=O)O)n(C)c3c-2c(Cl)ccc13 [AZD5991] + CC1(C)CCC(CN2CCN(c3ccc(C(=O)NS(=O)(=O)c4ccc(NCC5CCOCC5)c([N+](=O)[O-])c4)c(Oc4cnc5[nH]ccc5c4)c3)CC2)=C(c2ccc(Cl)cc2)C1 [Venetoclax] (first compound max 1 µM, 7x7, partner max 1 µM)
Reply: 0.116

Ask: Given the compound Cc1cc2ncnn2cc1Nc1ncc2c(n1)n(C1CCOCC1)c(=O)n2C [AZD7648] + C=CCn1c(=O)c2cnc(Nc3ccc(N4CCN(C)CC4)cc3)nc2n1-c1cccc(C(C)(C)O)n1 [AZD1775] (first compound max 10 µM, partner max 1 µM) , what is its reported combination Emax?
Reply: 0.312

* * *

test system: TE-6 (Esophageal Squamous Cell Carcinoma); experiment: Bliss excess, mean over the matrix (fraction); higher = more synergy
assay-endpoint: Bliss excess
Give a plain numeric answer without units written out.

Reference set, count: 5
molecule: Cn1cnc2c(F)c(Nc3ccc(Br)cc3Cl)c(C(=O)NOCCO)cc21 [Selumetinib] + CCN(CCO)CCCOc1ccc2c(Nc3cc(CC(=O)Nc4cccc(F)c4)[nH]n3)ncnc2c1 [AZD2811] (first compound max 10 µM, 7x7, partner max 1 µM)
readout-value: -0.0282
--
molecule: NC1(C(=O)N[C@@H](CCO)c2ccc(Cl)cc2)CCN(c2ncnc3[nH]ccc23)CC1 [Capivasertib] + Cn1cnc2c(F)c(Nc3ccc(Br)cc3Cl)c(C(=O)NOCCO)cc21 [Selumetinib] (first compound max 10 µM, 7x7, partner max 10 µM)
readout-value: 0.0032
--
molecule: CCN(CCO)CCCOc1ccc2c(Nc3cc(CC(=O)Nc4cccc(F)c4)[nH]n3)ncnc2c1 [AZD2811] + O=C(c1cc(Cc2n[nH]c(=O)c3ccccc23)ccc1F)N1CCN(C(=O)C2CC2)CC1 [Olaparib] (first compound max 1 µM, 7x7, partner max 10 µM)
readout-value: -0.0006
--
molecule: COc1cccc(OCCCN)c1-c1cc(Nc2cnc(C#N)cn2)n[nH]1 [Prexasertib] + CCc1c2c(nc3ccc(O)cc13)-c1cc3c(c(=O)n1C2)COC(=O)[C@]3(O)CC [SN-38] (first compound max 1 µM, 7x7, partner max 0.3 µM)
readout-value: 0.128
--
molecule: C=CCn1c(=O)c2cnc(Nc3ccc(N4CCN(C)CC4)cc3)nc2n1-c1cccc(C(C)(C)O)n1 [AZD1775] + O=C(c1cc(Cc2n[nH]c(=O)c3ccccc23)ccc1F)N1CCN(C(=O)C2CC2)CC1 [Olaparib] (first compound max 1 µM, partner max 10 µM)
readout-value: -0.0297

Ask: Bliss excess for C=CCn1c(=O)c2cnc(Nc3ccc(N4CCN(C)CC4)cc3)nc2n1-c1cccc(C(C)(C)O)n1 [AZD1775] + C[C@@H]1COCCN1C2=NC(=NC(=C2)C3(CC3)[S@](=N)(=O)C)C4=C5C=CNC5=NC=C4 [AZD6738] (first compound max 1 µM, partner max 10 µM) ?
Reply: 0.0135

Ask: Any idea what Bliss excess was measured for CS(=O)(=O)CCNCc1ccc(-c2ccc3ncnc(Nc4ccc(OCc5cccc(F)c5)c(Cl)c4)c3c2)o1 [Lapatinib] + NC1(c2ccc(-c3nc4ccn5c(=O)[nH]nc5c4cc3-c3ccccc3)cc2)CCC1 [MK-2206] (first compound max 10 µM, 7x7, partner max 10 µM) ?
Reply: -0.0159

* * *

test system: KARPAS-45 (T-Lymphoblastic Leukemia); assay: Bliss excess, mean over the matrix (fraction); higher = more synergy
Each entry below carries its recorded Bliss excess.

As a guide, the following entries are already answered.
compound: NC1(C(=O)N[C@@H](CCO)c2ccc(Cl)cc2)CCN(c2ncnc3[nH]ccc23)CC1 [Capivasertib] + CC(C)n1c(=O)n(C)c2cnc3cc(F)c(-c4ccc(OCCCN5CCCCC5)nc4)cc3c21 [AZD1390] (first compound max 10 µM, 7x7, partner max 0.3 µM)
experimental-target: KARPAS-45 (T-Lymphoblastic Leukemia)
Bliss excess: -0.0374
--
compound: NC1(C(=O)N[C@@H](CCO)c2ccc(Cl)cc2)CCN(c2ncnc3[nH]ccc23)CC1 [Capivasertib] + CCN(CCO)CCCOc1ccc2c(Nc3cc(CC(=O)Nc4cccc(F)c4)[nH]n3)ncnc2c1 [AZD2811] (first compound max 10 µM, 7x7, partner max 1 µM)
experimental-target: KARPAS-45 (T-Lymphoblastic Leukemia)
Bliss excess: -0.0426
--
compound: CC1(C)CCC(CN2CCN(c3ccc(C(=O)NS(=O)(=O)c4ccc(NCC5CCOCC5)c([N+](=O)[O-])c4)c(Oc4cnc5[nH]ccc5c4)c3)CC2)=C(c2ccc(Cl)cc2)C1 [Venetoclax] + C[C@@H]1COCCN1C2=NC(=NC(=C2)C3(CC3)[S@](=N)(=O)C)C4=C5C=CNC5=NC=C4 [AZD6738] (first compound max 1 µM, 7x7, partner max 10 µM)
experimental-target: KARPAS-45 (T-Lymphoblastic Leukemia)
Bliss excess: 0.0449

// below: Bliss excess requested for another compound
Ask: Which Bliss excess is reported for this compound? C[C@@H]1COCCN1c1cc(C2([S@](C)(=N)=O)CC2)nc(-c2ccnc3[nH]ccc23)n1 [AZD6738] + O=C(c1cc(Cc2n[nH]c(=O)c3ccccc23)ccc1F)N1CCN(C(=O)C2CC2)CC1 [Olaparib] (first compound max 10 µM, 7x7, partner max 10 µM)
Reply: 0.0023
